# Test system: LOX IMVI melanoma
# test-description: NCI-60 one-dose screen, 48 h (100 = growth as untreated, 0 = no growth, -100 = all killed)
# experimental-conditions: 10 µM unless noted
About 83,000 compounds went through this panel and 20% of them were active in at least one assay; those are over-represented in the sample as a whole.
property: growth (%)
Give the value, in units of %, as a plain number.

Problem: Return reported growth; argument: "COc1cc2c(c(OC)c1OC)-c1ccc(N)c(=O)cc1[C@@H](NC(C)=O)CC2"
Result: 25

* * *

# System: SF-539 CNS
# test-description: NCI-60 one-dose screen, 48 h
# experimental-conditions: 10 µM unless noted
# Protocol: Cells are grown in 96 well plates and exposed to the test compound for 48 hours. Compounds are tested at a single concentration, which is 10^-5 M for most compounds. The reported endpoint is percent growth (GI% or GIPRCNT), where numbers from 0 - 100% represent growth inhibition, and numbers from -100% - 0 represent cell death. For example, a value of 40 represents 60% growth inhibition. A value of 0 means no net growth occurred over the course of the experiment. […]
About 83,000 compounds went through this panel and 20% of them were active in at least one assay; those are over-represented in the sample as a whole. The source made the active and inactive calls. Rule for the calls: active = growth percent below 10; inactive = the rest.
// one of active, inactive, no free text

Worked examples, 5 molecules total:
molecule	class-name
CC(C)C1=CC2=C(C=O)C[C@@H]3[C@](C)(CCC[C@@]3(C)C(=O)OCC#CCN3CCCC3)[C@H]2CC1	inactive
Cn1c2ccc(Br)cc2c2c3c(c4c5ccccc5[nH]c4c21)C(=O)N(O)C3=O	active
c1ccc(-c2cn(-c3ccccc3)c(-c3ccccc3)n2)cc1	inactive
O=C(CSc1nc2ccccc2[nH]1)c1ccc(N2CCOCC2)cc1	inactive
COc1ccc(S(=O)(=O)n2ccc(-c3ccc4c(c3)CCC(C)(C)O4)n2)cc1OC	inactive

Problem: How was "CC1=NC2=CC=CC3=NC(C(Cl)(Cl)Cl)=NC(=N1)N23" classified in this test?
Result: inactive

Problem: How was "CN1CCN(Cc2ccc(NC(=O)c3cncc(C#Cc4cnc(N)c5ccncc45)c3)cc2C(F)(F)F)CC1" classified in this test?
Result: active

Problem: How was "O=Nc1c(-c2cccc([N+](=O)[O-])c2)nc2ncccn12" classified in this test?
Result: inactive

Problem: How was "COc1ccc(CNCCCN2C(=O)c3ccc4c5c(ccc(c35)C2=O)C(=O)N(CCCNCCCCNCCCN)C4=O)c(OC)c1OC" classified in this test?
Result: active

Problem: How was "CC(=O)Oc1cccc(S(=O)(=O)n2cc(C(=O)C(=O)Nc3ccncc3)c3ccccc32)c1" classified in this test?
Result: inactive

Problem: How was "Cc1cccc(/C=N/Nc2cc(C)c3cccc(C)c3n2)n1" classified in this test?
Result: inactive

Problem: How was CCN(CC)CCC(CNc1c2ccc(Cl)cc2nc2ccc(OC)cc12)c1ccccc1 (stereo not given) classified in this test?
Result: active

Problem: How was "NC(N)=Nc1nc2ccccc2o1" classified in this test?
Result: inactive

Problem: How was CC(NNC(C)c1ccccc1)c1ccccc1 (stereo not given) classified in this test?
Result: inactive

Problem: How was COc1ccc(C2CC(c3ccc(OC)cc3OC)=NN2c2ccc(S(N)(=O)=O)cc2)cc1 (stereo not given) classified in this test?
Result: inactive

Problem: How was "CCC(=O)Oc1ccc(/C(=C(/C)Cc2cccc(OC)c2)c2ccc(OCCN(C)C)cc2)cc1" classified in this test?
Result: inactive

Problem: How was "COc1ccc(Nc2nn3c(-c4ccccc4)cc(-c4ccccc4)nc3c2C(N)=O)c(OC)c1" classified in this test?
Result: inactive
